# Tested on: 485176-168-R4-J1-PDC spheroids with HUVEC/MSC, viability
# assayName: Anticancer human tumor 485176-168-R4-J1-PDC patient-derived pancreatic adenocarcinoma cell line growth inhibition [GQUAD]; active = viability on the fitted dose curve at most 10% of control; inactive = the rest
# protocolConditions: second compound 10 µM; first compound 0.0999 µM
In this exercise, the only acceptable responses are Yes (active), No (inactive)

{"compound": "CCc1c2c(nc3ccc(O)cc13)-c1cc3c(c(=O)n1C2)COC(=O)[C@]3(O)CC + CN(C)c1ccc(Nc2c3ccc(NC(=O)CCN4CCCC4)cc3nc3cc(NC(=O)CCN4CCCC4)ccc23)cc1", "assignedClass": "No"}
{"compound": "Cc1[nH]c2ccccc2c1CCNCc1ccc(/C=C/C(=O)NO)cc1 + Cc1[nH]c2ccc(F)cc2c1-c1nc2c3cccnc3c3ncccc3c2[nH]1", "assignedClass": "No"}
{"compound": "CCc1c2c(nc3ccc(O)cc13)-c1cc3c(c(=O)n1C2)COC(=O)[C@]3(O)CC + Cc1cnc(CNC(=O)c2c(=O)c3ccc(N4CCCN(C)CC4)nc3n3c2sc2ccccc23)cn1", "assignedClass": "Yes"}
{"compound": "CCc1c2c(nc3ccc(O)cc13)-c1cc3c(c(=O)n1C2)COC(=O)[C@]3(O)CC + Cc1[nH]c2ccc(F)cc2c1-c1nc2c3cccnc3c3ncccc3c2[nH]1", "assignedClass": "No"}
{"compound": "CC[C@@]1(O)C(=O)OCc2c1cc1n(c2=O)Cc2cc3c(CN(C)C)c(O)ccc3nc2-1 + CN(C)c1ccc(Nc2c3ccc(NC(=O)CCN4CCCC4)cc3nc3cc(NC(=O)CCN4CCCC4)ccc23)cc1", "assignedClass": "No"}

Query: Would you mind telling me which call this test gave CC[C@@]1(O)C(=O)OCc2c1cc1n(c2=O)Cc2cc3c(CN(C)C)c(O)ccc3nc2-1 + Cc1cnc(CNC(=O)c2c(=O)c3ccc(N4CCCN(C)CC4)nc3n3c2sc2ccccc23)cn1 ?
Reply: No

Query: Would you mind telling me which call this test gave Cc1[nH]c2ccccc2c1CCNCc1ccc(/C=C/C(=O)NO)cc1 + Cc1cnc(CNC(=O)c2c(=O)c3ccc(N4CCCN(C)CC4)nc3n3c2sc2ccccc23)cn1 ?
Reply: No

---

# System: 485176-168-R4-J1-PDC spheroids with HUVEC/MSC, viability
# assayName: Anticancer human tumor 485176-168-R4-J1-PDC cell line growth inhibition [GQUAD];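 note: spheroids exposed to compounds for seven days before readout; percent viability relative to DMSO vehicle control wells as 100%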
# protocolConditions: second compound 0.0316 µM; first compound 0.000999 µM; hits give low values
reportedMetric: viability, T/C

Here are 4 molecules together with their reported answers.
{"molecule": "Cc1[nH]c2ccccc2c1CCNCc1ccc(/C=C/C(=O)NO)cc1 + CN(C)c1ccc(Nc2c3ccc(NC(=O)CCN4CCCC4)cc3nc3cc(NC(=O)CCN4CCCC4)ccc23)cc1", "viability, T/C": "102%"}
{"molecule": "Cc1[nH]c2ccccc2c1CCNCc1ccc(/C=C/C(=O)NO)cc1 + Cc1cnc(CNC(=O)c2c(=O)c3ccc(N4CCCN(C)CC4)nc3n3c2sc2ccccc23)cn1", "viability, T/C": "99.4%"}
{"molecule": "Cn1ncnc1[C@H]1c2n[nH]c(=O)c3cc(F)cc(c23)N[C@@H]1c1ccc(F)cc1 + Cc1[nH]c2ccc(F)cc2c1-c1nc2c3cccnc3c3ncccc3c2[nH]1", "viability, T/C": "109%"}
{"molecule": "CC[C@@]1(O)C(=O)OCc2c1cc1n(c2=O)Cc2cc3c(CN(C)C)c(O)ccc3nc2-1 + Cc1[nH]c2ccc(F)cc2c1-c1nc2c3cccnc3c3ncccc3c2[nH]1", "viability, T/C": "124%"}

Shift focus to the following entry.
Looking up Cn1ncnc1[C@H]1c2n[nH]c(=O)c3cc(F)cc(c23)N[C@@H]1c1ccc(F)cc1 + CN(C)c1ccc(Nc2c3ccc(NC(=O)CCN4CCCC4)cc3nc3cc(NC(=O)CCN4CCCC4)ccc23)cc1 , I found its viability, T/C recorded as 92.1%

---

# System: 485176-168-R4-J1-PDC spheroids with HUVEC/MSC, viability
# assayName: Anticancer human tumor 485176-168-R4-J1-PDC cell line growth inhibition [GQUAD];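 note: spheroids exposed to compounds for seven days before readout; percent viability relative to DMSO vehicle control wells as 100%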
# protocolConditions: second compound 0.316 µM; first compound 3.16 µM; hits give low values
The compounds listed here are annotated with their viability, T/C.
Could you give me the number in %? Just the number is fine.

Here are 2 compounds together with their reported answers.
{"compound": "O=C(NO)c1cnc(N2CCN(S(=O)(=O)c3ccc4ccccc4c3)CC2)nc1 + Cc1cnc(CNC(=O)c2c(=O)c3ccc(N4CCCN(C)CC4)nc3n3c2sc2ccccc23)cn1", "studySystem": "485176-168-R4-J1-PDC spheroids with HUVEC/MSC, viability", "viability, T/C, %": 0.22}
{"compound": "COc1ncnc(C2CC2)c1-c1ncc2cnn(Cc3ccc(-c4nc(C(F)(F)F)cn4C(C)C)cc3)c2n1 + Cc1[nH]c2ccc(F)cc2c1-c1nc2c3cccnc3c3ncccc3c2[nH]1", "studySystem": "485176-168-R4-J1-PDC spheroids with HUVEC/MSC, viability", "viability, T/C, %": 110}

Looking up COc1cccc2c1C(=O)c1c(O)c3c(c(O)c1C2=O)CC(O)(C(=O)CO)CC3OC1CC(N)C(O)C(C)O1 (stereo not given) + Cc1cnc(CNC(=O)c2c(=O)c3ccc(N4CCCN(C)CC4)nc3n3c2sc2ccccc23)cn1 , I found its viability, T/C recorded as 6.39

Looking up CC(C)n1c(=O)n(C)c2cnc3cc(F)c(-c4ccc(OCCCN5CCCCC5)nc4)cc3c21 + Cc1[nH]c2ccc(F)cc2c1-c1nc2c3cccnc3c3ncccc3c2[nH]1 , I found its viability, T/C recorded as 80.4

Looking up COc1ncnc(C2CC2)c1-c1ncc2cnn(Cc3ccc(-c4nc(C(F)(F)F)cn4C(C)C)cc3)c2n1 + Cc1cnc(CNC(=O)c2c(=O)c3ccc(N4CCCN(C)CC4)nc3n3c2sc2ccccc23)cn1 , I found its viability, T/C recorded as 61.6

---

The compounds listed here are annotated with their viability, T/C.
# Tested on: 485176-168-R4-J1-PDC spheroids with HUVEC/MSC, viability
# assayName: Anticancer human tumor 485176-168-R4-J1-PDC cell line growth inhibition [GQUAD];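 note: spheroids exposed to compounds for seven days before readout; percent viability relative to DMSO vehicle control wells as 100%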
# protocolConditions: second compound 0.1 µM; first compound 0.316 µM; hits give low values
# Text: DNA G-quadruplex Stabilizer Agents in Combinations in Complex Spheroids A high-throughput screen of multi-cell type tumor spheroids was designed to identify active combinations of DNA G-quadruplex stabilizer agents and targeted small molecules. […] Compounds. […] If the clinical Cmax for an agent had not been determined, the highest concentration tested was 10 microM. […]
Could you give me the number in %? Just the number is fine.

Here are 2 compounds together with their reported answers.
{"compound": "Cn1ncnc1[C@H]1c2n[nH]c(=O)c3cc(F)cc(c23)N[C@@H]1c1ccc(F)cc1 + Cc1cnc(CNC(=O)c2c(=O)c3ccc(N4CCCN(C)CC4)nc3n3c2sc2ccccc23)cn1", "studySystem": "485176-168-R4-J1-PDC spheroids with HUVEC/MSC, viability", "recordedValue": 69.9}
{"compound": "CCCS(=O)(=O)Nc1ccc(F)c(C(=O)c2c[nH]c3ncc(-c4ccc(Cl)cc4)cc23)c1F + Cc1cnc(CNC(=O)c2c(=O)c3ccc(N4CCCN(C)CC4)nc3n3c2sc2ccccc23)cn1", "studySystem": "485176-168-R4-J1-PDC spheroids with HUVEC/MSC, viability", "recordedValue": 60.2}

Shift focus to the following entry.
Looking up O=C(c1cc(Cc2n[nH]c(=O)c3ccccc23)ccc1F)N1CCN(C(=O)C2CC2)CC1 + Cc1cnc(CNC(=O)c2c(=O)c3ccc(N4CCCN(C)CC4)nc3n3c2sc2ccccc23)cn1 , I found its viability, T/C recorded as 63.4

---

# System: 485176-168-R4-J1-PDC spheroids with HUVEC/MSC, viability
# assayName: Anticancer human tumor 485176-168-R4-J1-PDC cell line growth inhibition [GQUAD];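 note: spheroids exposed to compounds for seven days before readout; percent viability relative to DMSO vehicle control wells as 100%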
# protocolConditions: second compound 3.16 µM; first compound 0.00316 µM; hits give low values
reportedMetric: viability, T/C (%)
Could you give me the number in %? Just the number is fine.

Here are 3 molecules together with their reported answers.
{"molecule": "CCc1c2c(nc3ccc(O)cc13)-c1cc3c(c(=O)n1C2)COC(=O)[C@]3(O)CC + Cc1cnc(CNC(=O)c2c(=O)c3ccc(N4CCCN(C)CC4)nc3n3c2sc2ccccc23)cn1", "resultUnits": "%", "viability, T/C": 35}
{"molecule": "Cc1[nH]c2ccccc2c1CCNCc1ccc(/C=C/C(=O)NO)cc1 + Cc1[nH]c2ccc(F)cc2c1-c1nc2c3cccnc3c3ncccc3c2[nH]1", "resultUnits": "%", "viability, T/C": 93}
{"molecule": "Cn1ncnc1[C@H]1c2n[nH]c(=O)c3cc(F)cc(c23)N[C@@H]1c1ccc(F)cc1 + Cc1[nH]c2ccc(F)cc2c1-c1nc2c3cccnc3c3ncccc3c2[nH]1", "resultUnits": "%", "viability, T/C": 89.3}

Form field viability, T/C for item CC[C@@]1(O)C(=O)OCc2c1cc1n(c2=O)Cc2cc3c(CN(C)C)c(O)ccc3nc2-1 + Cc1[nH]c2ccc(F)cc2c1-c1nc2c3cccnc3c3ncccc3c2[nH]1 on 485176-168-R4-J1-PDC spheroids with HUVEC/MSC, viability: 99.7

Form field viability, T/C for item CCc1c2c(nc3ccc(O)cc13)-c1cc3c(c(=O)n1C2)COC(=O)[C@]3(O)CC + CN(C)c1ccc(Nc2c3ccc(NC(=O)CCN4CCCC4)cc3nc3cc(NC(=O)CCN4CCCC4)ccc23)cc1 on 485176-168-R4-J1-PDC spheroids with HUVEC/MSC, viability: 88

Form field viability, T/C for item CC[C@@]1(O)C(=O)OCc2c1cc1n(c2=O)Cc2cc3c(CN(C)C)c(O)ccc3nc2-1 + Cc1cnc(CNC(=O)c2c(=O)c3ccc(N4CCCN(C)CC4)nc3n3c2sc2ccccc23)cn1 on 485176-168-R4-J1-PDC spheroids with HUVEC/MSC, viability: 49.4

Form field viability, T/C for item Cn1ncnc1[C@H]1c2n[nH]c(=O)c3cc(F)cc(c23)N[C@@H]1c1ccc(F)cc1 + Cc1cnc(CNC(=O)c2c(=O)c3ccc(N4CCCN(C)CC4)nc3n3c2sc2ccccc23)cn1 on 485176-168-R4-J1-PDC spheroids with HUVEC/MSC, viability: 63.9

Form field viability, T/C for item CC[C@@]1(O)C(=O)OCc2c1cc1n(c2=O)Cc2cc3c(CN(C)C)c(O)ccc3nc2-1 + CN(C)c1ccc(Nc2c3ccc(NC(=O)CCN4CCCC4)cc3nc3cc(NC(=O)CCN4CCCC4)ccc23)cc1 on 485176-168-R4-J1-PDC spheroids with HUVEC/MSC, viability: 99.7
